Listed here: items and their measured apparent Kd.
system: MS2 coat protein; test: apparent Kd, MS2 coat protein; higher = weaker binding; RNA-MaP array; settings: designed as: ON switch for flavin mononucleotide; no ligand
The reply should contain only the number, in nM.

Form field - read-out: apparent Kd; system: MS2 coat protein; submitted item: AAAUCAAAGCAGAAGGAACAAUAAGCAUAAAGGUUAGGAUAUGCGUCAACGCAAAGUACAUGAGGAUCACCCAUGUUUAUAAGC 7.37

Field: apparent Kd (MS2 coat protein). Entry: CCCAGAUGCUAGAAGGCCUACAUGAGGAUCACCCAUGUAUCCGCUAUCCACACACGCAGGCGGCAGGAGGAUAUAGACGAAGGA 8.84

Under MS2 coat protein: apparent Kd value of AAUGGAAGGGAGAAGGCACGCUCUGUCGAACCGUGAGGAUAUCCAUCGGGUAAUAUACAUGAGGAUCACCCAUGUGGCGUCCAG ? 25.8

// map AUAGGGCGACAGAAGGGCAGUGCACGCAUUGCUGCAGGAUAUGUGGUCCACAUGAGGAUCACCCAUGUAGUAAUAUCUUGUAGU to recorded apparent Kd (system: MS2 coat protein) 104

----------
tested on: MS2 coat protein; assay: apparent Kd, MS2 coat protein; higher = weaker binding; RNA-MaP array; settings: designed as: ON switch for flavin mononucleotide; no ligand
apparent Kd vs 20 nM: at or above is satisfied, below is not satisfied.

Here's what some known entries look like.
AGUGGACUGAGGCAGGAUAUCUAUUCAGGAACAUGAGGAUCACCCAUGUCAUGAAAUGACUCGUGAGAGAAGGGCCGUCAACUUAU    satisfied
AAAACGGGUUAGAAGGGCAAUUUUGAUGACAGUGCAGGAUAUAACUUGUGUCCGAAUAUGGACAUGAGGAUCACCCAUGUUAGU    satisfied
UAAGACGGGCGAGGAUAUACGAACUGGGUCAAAGUAGAAGGCGCGAGUCAUUGUUAUAAUCCAACAUGAGGAUCACCCAUGUCU    satisfied
CUCAAUUAAGAGAAGGUUACUUGUGUUACGUGUAAAGGAUAUCUAAGCGCUAGGCACAUGAGGAUCACCCAUGUUCCUGCCUUU    not satisfied
ACUUGACAUGAGGAUCACCCAUGUGAUCCGUCAUUAGGAUAUCGAAGGUAUAUCACGCCUCGAGAAGGAAUAGCGG    satisfied

Now for a further sequence.
Reported apparent Kd reaches at least 20 nM for UACCAAAUCACAGGAUAUGAGGCGCCAGCUAGGUCAGAAGGGUGACAUGAGGAUCACCCAUGUUCGCAGAAAAUAAUUGCUAAG ? satisfied

----------
test system: MS2 coat protein; assay: apparent Kd, MS2 coat protein; higher = weaker binding; RNA-MaP array; FMN 200 µM where present; conditions: designed as: OFF switch for flavin mononucleotide; no ligand
Binary classification by apparent Kd, with 10 nM as an inclusive lower bound for Yes; all other cases are No.

Solved cases (5 shown):
GCACUGGAUGUAGGAUAUCAGGACGAUAAGUCCUGAGAAGGACAUGAGGAUCACCCAUGUGAAAAUUACCAGUGCAAUAAUAUA    Yes
AAAAAGGCAGGAUAUGCAUACACACAAAAAAAAAAACUGGGACAUGAGGAUCACCCAUGUAGAAGGGCCAAAAA    Yes
GUGCGUGGCUAGGAUAUUGUGGAGUUUAGUCAGCGAGAAGGUGCCACAUGAGGAUCACCCAUGUGGUGUUGCUC    Yes
AAAGCAACAUGAGGAUCACCCAUGUAGGAUAUCGCUAUUGUAAUCAUGAAACAUGAUUACAAUAGCGAGAAGGACAUAUGCUAA    No
AAAUUUAACGAAGGAUAUGGAUACAUGAGGAUCACCCAUGUUUAUUUUGUGAUCUUGUAUAAGUACCAGAAGGUCGUAUACAUA    Yes

Kindly review the next sequence as well.
Decide: is the reported value of apparent Kd for CGAUCGUUGCAGAAGGUUAAAUAAUUAUCUACAUGUUUUACAUGAGGAUCACCCAUGUUUAUGUUGAAGGAUAUGCAAGGGUCG equal to or greater than 10 nM? No

----------
tested on: MS2 coat protein; test: apparent Kd, MS2 coat protein; higher = weaker binding; RNA-MaP array; FMN 200 µM where present; conditions: ligand present: flavin mononucleotide; designed as: ON switch for flavin mononucleotide
Would you mind labelling by apparent Kd? At or over 10 nM is 1 (yes), under is 0 (no).

AGAGGUCGCACAGGAUAUCAUACAUGAGGAUCACCCAUGUCAGAAAACAAAUGAGAAGGGUGCGCAUUAAUUGCUUGUGAAGAA    0 (no)
GUAGCUAUCGGAGGAUAUUCAUACCGGAAACGGACAUGAGGAUCACCCAUGUGGCGAAAGCCUUGGGAGAAGGCCGAUCGCUAC    0 (no)
UGGUCAUCAUCAGGAUAUUAACGUGGGCUACUUUAAGAAGGGAUAGUGGGAGAGGAUGUGAAACAUGAGGAUCACCCAUGUUGU    1 (yes)

Quick check: does GCAAAACAUGAGGAUCACCCAUGUCAACAAAAUCAAGGAUAUGAGCCGGCAAUGCCAGCAUCAGAAGGUGAACCUU have apparent Kd greater than or equal to 10 nM? 1 (yes)

Can GUUUCUAUAUGUUAUAUUUAACAGUCAGAAGGUGAUACUACGACAUGAGGAUCACCCAUGUAAUUCAAGGAUAUGAACUUAAUC be said to have apparent Kd at or above 10 nM? 1 (yes)

Check if apparent Kd >= 10 nM (inclusive). Item: GCCAUCGCAUGAGGAUAUGGCACCGUUUCGGUGCCAGAAGGCAUGUCUUAAGACAUGAGGAUCACCCAUGUAGUUAAGAUGGCA 1 (yes)

Does apparent Kd meet or surpass 10 nM for UUUUUAAAUAUAGGAUAUGGAAACAUGAGGAUCACCCAUGUAUGAUAAGAUAAAUUAUGAUAUAGCCAGAAGGAUACAAUUUUU ? 1 (yes)

----------
system: MS2 coat protein; test: apparent Kd, MS2 coat protein; higher = weaker binding; RNA-MaP array; FMN 200 µM where present; conditions: designed as: OFF switch for flavin mononucleotide; no ligand
measurement-type: apparent Kd (µM)
Respond numerically; units are µM and should not be typed.

A selection of reference data follows.
GUCCUUAACAAGGAUAUCGGGCGGGUUUUUGUUUGAGAAGGUGUGACAUGAGGAUCACCCAUGUGGCGCGUGGG    0.355
UAUUAUCACGAAGGAUAUGCUUACAUGAGGAUCACCCAUGUAUGUAUAUUGAUCCAGCGUUUUGAGCAGAAGGUCGUGAGUAAA    0.0201
CUGUUACAUGAGGAUCACCCAUGUGAGGAUAUGGUUCGGUACUGUCCUGUCGCGUACUCCAGAAGGCACGUGUC    0.0294
GGUCCGAGUGUGAGGAUAUGCUGGUCCUUGGAUCAGCAGAAGGCACAUGAGGAUCACCCAUGUGGAGACGGACC    0.206
CUCGGACAUGAGGAUCACCCAUGUGAGGAUAUGAUGCGAUCGUCGAAAGACGAUAGCAUCAGAAGGUACAAAUG    0.052
GUGGUACAUGAGGAUCACCCAUGUUAGGAUAUCGCGUGAGGUUUUGCUUCCGCGCGCGCGAGAAGGGACGUCUU    0.0283

Now consider the entry below.
Provide value of apparent Kd for this record tested with MS2 coat protein: UGGAGGUCAGGAUAUGCAUGGCGGGACUUGCGUCGUGGCGUGCAGAAGGGACAUGAGGAUCACCCAUGUGGAGC 0.0645

----------
test system: MS2 coat protein; assay: apparent Kd, MS2 coat protein; higher = weaker binding; RNA-MaP array; details: designed as: ON switch for flavin mononucleotide; no ligand
measurement-type: apparent Kd (nM)
// units = nM; emit number, no label

GCUAGCGGUAAGAAGGCAUAGACCAAAACUUCAUGAGGAUAUUAUUUGCGGCAUUCGCUCCAAGGACAUGAGGAUCACCCAUGU    15.4
GGCGAUCAGUGAGGAUAUUCCGCGCAAAUACUAGAAGAAGGCACGUAUCAAGGGUUCAGAACAUGAGGAUCACCCAUGUCAAGC    14
CGUAAUGCACUAGGAUAUGUUGUAUAUACAACGACAGAAGGAGUUCCACAUGAGGAUCACCCAUGUCCAAACCAAUACUCAUCG    78.2
GGGAAACAUGAGGAUCACCCAUGUGUACAUAAGUAAGGAUAUAGAAGAGGUGACAGUGGUCUAGAAGGUACAACAC    65.6

# get_value(readout='apparent Kd', item= CGUAAUAACUCACAGGAUAUGCGAGAGGAGACAUGAGGAUCACCCAUGUGACCAUGAAUAUUCCUGCAGAAGGGUGAUAAAUCAUU ) 13

// lookup apparent Kd for AAGGUCCAAGAGAAGGCGCUCAUGGGAUCAAGACAUGAGGAUCACCCAUGUUGGCGCAGCACAAGCGAGGAUAUCUCCACCGGC 420

Look up apparent Kd: AGCAGCCCUAAAGGAUAUUUGCGCGAGCAAAGCAAAGAAGGUUAAGGGUGGGCUUCAGAGACUACAUGAGGAUCACCCAUGUCC 448

For the sequence shown here, UCUAAACAUGAGGAUCACCCAUGUGAUUUACUCGCAGGAUAUGAGAGCUUGCACACGCAAUCAGAAGGGCGUCGAA , give the reported apparent Kd. 36.6

Reported apparent Kd, sequence UUAGAAUACUAAGGAUAUGAUUAUGGCGCACCGCUGUCCGGUGUACAUGAGGAUCACCCAUGUAAUCAGAAGGUAGACUUGUCC : ____ 9.94

I'd like to know its apparent Kd. The sequence in question is ACGAGGUACACAGGAUAUGCAAACAUGAGGAUCACCCAUGUGUUCGCCAAUAUCGUGAAUGUGUCGCAGAAGGGUGGUAGUCUA 12.3

For GGACCAAGGAGGGAGGAUAUCACAUACAAAACAUGAGGAUCACCCAUGUAGAAGAGACAAGAUACAGAGAAGGCCCAGAAAUAAAA , what is its reported apparent Kd? 14

# input sequence: GACUUGCAAGAGAAGGCGGCCACCAAUCAUCGGAGUGUAAACUCUACAUGAGGAUCACCCAUGUCCGAGGAUAUCUUCAUCAGU ; wanted: its apparent Kd 59.9

Need apparent Kd of GCAGGCGUUAAGAAGGUUCUCCCACAUGAGGAUCACCCAUGUUGACAUGCUAGAGUCAUUACAAGAAAGGAUAUUAGCGAAUUG , thanks. 114

Report apparent Kd for UUCUCACAUGAGGAUCACCCAUGUCUAAGGAGUACAGGAUAUGUGCCGUGAUUUUCGAGUACAGAAGGGUACAAUU please. 273
